Experiment: Tigecycline plasma PK and % F after intraduodenal (ID) injection in anesthetized rats
Format: in vivo, Sprague-Dawley Rats
Conditions: female, Sprague-Dawley, rat, plasma, 4.8 mg/kg, ID, PBS, 4.8 mg/kg (RA851)

{"structure-smiles": "CN(C)c1cc(NC(=O)CNC(C)(C)C)c(O)c2c1C[C@H]1C[C@H]3[C@H](N(C)C)C(O)=C(C(N)=O)C(=O)[C@@]3(O)C(O)=C1C2=O", "AUC(0-t)": "116 ng·h/mL"}

* * *

Experiment: Tigecycline plasma PK and % F after intraduodenal (ID) injection in anesthetized rats
Type: in vivo, Sprague-Dawley Rats
Details: female, Sprague-Dawley, rat, plasma, other: intraduodenal bolus injection, 9 mg/kg, ID, PBS, 9.0 mg/kg (RA853), animal RA853-4 only; 0 min

{"molecule": "CN(C)c1cc(NC(=O)CNC(C)(C)C)c(O)c2c1C[C@H]1C[C@H]3[C@H](N(C)C)C(O)=C(C(N)=O)C(=O)[C@@]3(O)C(O)=C1C2=O [Tigecycline]", "concentration at 0 min": "0 ng/mL"}

* * *

Experiment: Tigecycline plasma PK and % F after PO enteric-coated capsule in dogs
Assay type: in vivo, Beagle dogs
Settings: female, beagle, dog, plasma, po, 15 mg, Tigecycline Plasma Concentration, 75 min; PO 15 mg enteric-coated capsule with 500 mg CA and 100 mg LLC, SC424; mean
quantity: concentration at 75 min (ng/mL)

{"structure-smiles": "CN(C)c1cc(NC(=O)CNC(C)(C)C)c(O)c2c1C[C@H]1C[C@H]3[C@H](N(C)C)C(O)=C(C(N)=O)C(=O)[C@@]3(O)C(O)=C1C2=O", "value-measured": 46.1}

* * *

Test: Tigecycline plasma PK and % F after intraduodenal (ID) injection in anesthetized rats
Assay type: in vivo, Sprague-Dawley Rats
Settings: female, Sprague-Dawley, rat, plasma, 9 mg/kg, pH 3.5, ID, 100 mM CA (pH 3.5), 26 mM LLC, 9.0 mg/kg (RA853)
quantity: Tmax (min)

{"structure-smiles": "CN(C)c1cc(NC(=O)CNC(C)(C)C)c(O)c2c1C[C@H]1C[C@H]3[C@H](N(C)C)C(O)=C(C(N)=O)C(=O)[C@@]3(O)C(O)=C1C2=O", "value-measured": 17}

* * *

Test: Tigecycline plasma PK and % F after PO enteric-coated capsule in dogs
Format: in vivo, Beagle dogs
Conditions: female, beagle, dog, plasma, po, 15 mg, target dose 15 mg, enterically coated capsule; read-out: Observed Mean Cmax

{"structure-smiles": "CN(C)c1cc(NC(=O)CNC(C)(C)C)c(O)c2c1C[C@H]1C[C@H]3[C@H](N(C)C)C(O)=C(C(N)=O)C(=O)[C@@]3(O)C(O)=C1C2=O", "unit-text": "ng/mL", "Cmax": 75.5}

* * *

Experiment: Tigecycline plasma PK and % F after intraduodenal (ID) injection in anesthetized rats
Type: in vivo, Sprague-Dawley Rats
Conditions: female, Sprague-Dawley, rat, plasma, other: intraduodenal bolus injection, 9 mg/kg, ID, PBS, 9.0 mg/kg (RA853), animal RA853-4 only; 20 min
quantity: concentration at 20 min (ng/mL)

{"compound": "CN(C)c1cc(NC(=O)CNC(C)(C)C)c(O)c2c1C[C@H]1C[C@H]3[C@H](N(C)C)C(O)=C(C(N)=O)C(=O)[C@@]3(O)C(O)=C1C2=O [Tigecycline]", "quantity": "concentration at 20 min", "unit-text": "ng/mL", "value-measured": 0}
